Here the recorded MIC, Staphylococcus aureus isolate USA200 is given for each entry.
# Test system: MRSA USA200
# experiment_description: MIC against MRSA USA200
# Assay type: cell-based, Staphylococcus aureus
# run_conditions: TSB, 37 °C, 18–20 hours
Field: numeric (µg/mL). Do not append units.

COc1ccc2ccc(OCCCCCCCCNCCc3ccc(Br)cc3)cc2c1: 2

Moving on to another molecule below.
Incoming: Given Brc1cc2ccc(OCCCCCCCCN3CCCCC3)cc2cc1OCc1ccccc1 , state its recorded MIC, Staphylococcus aureus isolate USA200.
Outgoing: 4

====

Here the recorded MIC is given for each entry.
# Test system: MRSA USA200
# experiment_description: MIC against MRSA USA200
# Type: cell-based, Staphylococcus aureus
# run_conditions: Staphylococcus aureus; TSB, 37 °C, 18–20 hours; read-out: MIC, Staphylococcus aureus isolate USA200
Field: numeric (µg/mL). Do not append units.

Consider the worked cases shown below.
Clc1ccc(CCNCCCCCCCCOc2ccc3cc(Br)ccc3c2)cc1 [5b]: 16
Fc1ccc(CCNCCCOc2ccc3ccc(OCCCNCCc4ccc(F)cc4)cc3c2)cc1 [7c]: 2
Brc1ccc(CCNCCCCCCCCOc2ccc3cc(Br)ccc3c2)cc1 [5c]: 8

Incoming: Given COc1ccc2ccc(OCCCCCCCCNCCc3ccc(F)cc3)cc2c1 [3a] , state its recorded MIC.
Outgoing: 2

Data origin, for the record: paper PMC5223195
